All figures here come from the supplement of paper PMC6555819.

Test system: PPARg DBDmut:RXRa IVT, anti-PPARg (DBD mutation: PPARg1 K132A/R137A, NR concentration 270 nM, RXRa partner concentration 90 nM)
experiment summary: PBM binding z-score (relative to random genomic background probes); higher = stronger binding; sequences stand for … in GC…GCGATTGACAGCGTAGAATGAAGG
measure name: PBM binding z-score
// print number alone

Incoming: Return reported PBM binding z-score. Input sequence: TCTGCTAGGTCAACAATGGTCAGCTAATCTGCTA
Outgoing: 0.64

Incoming: Return reported PBM binding z-score. Input sequence: CGTCAAAGTTCAAGGTAACGTACCAGAAAGCAGC
Outgoing: 0.882

Incoming: Return reported PBM binding z-score. Input sequence: TGAATGAGGTTAAAGTTCAGGGAACGTGGCGTCG
Outgoing: 1.25

Incoming: Return reported PBM binding z-score. Input sequence: GCATATACGTAATACAAGGTGAAAGTCCGATTGT
Outgoing: 0.51

Incoming: Return reported PBM binding z-score. Input sequence: TCTCGGAGGACACGAAAGGTCAGCGCTCGACATC
Outgoing: -0.121

Incoming: Return reported PBM binding z-score. Input sequence: CGTCAAAGTTCAAAGTAACGTAACAGAAAGCAGC
Outgoing: 1.23

Incoming: Return reported PBM binding z-score. Input sequence: CCTACTGGGCCCTTCAGAGGTCATTGATCATATG
Outgoing: -0.729

Incoming: Return reported PBM binding z-score. Input sequence: TCTAGCAGGCCAGATGGTCACTCAAGAGGTACGG
Outgoing: -0.764

Incoming: Return reported PBM binding z-score. Input sequence: ACTAGTTGGTCAGCTGAGCTCACACACAATTCGG
Outgoing: 0.319

Incoming: Return reported PBM binding z-score. Input sequence: TCTCGGAGGACACGAAAGGTCAGAGCGCGACATC
Outgoing: -0.212

Incoming: Return reported PBM binding z-score. Input sequence: TCTCGGAGGACATGAAGGTCAGAGCTTTCCAGAG
Outgoing: -0.736

Incoming: Return reported PBM binding z-score. Input sequence: TCTAGTTGGTCAATGGTCACACACTCGAAATGCG
Outgoing: 0.677

Incoming: Return reported PBM binding z-score. Input sequence: TCGAGTAGGTTAGGGGCGTTCAGAATGGCGTCGA
Outgoing: 0.15

Incoming: Return reported PBM binding z-score. Input sequence: ATCGAAAGGTCGAGGGTGAGTATACCCACCCGAA
Outgoing: 0.623

Incoming: Return reported PBM binding z-score. Input sequence: CCGAGTAGGTTATGGGGCATTCGGGCAACGGTGA
Outgoing: -0.19

Incoming: Return reported PBM binding z-score. Input sequence: CAAACTAGGTCAAGAGGTTAAAGTCCGCTTCCCG
Outgoing: 1.58

Incoming: Return reported PBM binding z-score. Input sequence: CCAAGTTGGTCAGGAGGTCACACACCGGATATGA
Outgoing: 0.859

Incoming: Return reported PBM binding z-score. Input sequence: CCTGGTAGGTCATGGTCAGCTAATCTACAGTATG
Outgoing: 0.295

Incoming: Return reported PBM binding z-score. Input sequence: GCTACAGGGTCAGCTAGAGGCCAGAGTATGGAAA
Outgoing: -0.627

Incoming: Return reported PBM binding z-score. Input sequence: GCTTGTAGGTCAAGGTTAAGAAAGACTAAGCTAA
Outgoing: 2.05

Incoming: Return reported PBM binding z-score. Input sequence: CTACGAAGGTGAACAAGGTCGTTGATTACTATTC
Outgoing: 0.435

Incoming: Return reported PBM binding z-score. Input sequence: ATCTCTAGGTCAGACTCAGTTCAGTGAAGAACGC
Outgoing: 1.01

Incoming: Return reported PBM binding z-score. Input sequence: CCGACTGGGGCAAGGTTACCTTAACGCACAGCCA
Outgoing: -1.05

Incoming: Return reported PBM binding z-score. Input sequence: ACTAGCAGGCCAAGTTTGGATCACTCAAACAAAG
Outgoing: -0.895
